STUDY_TARGET: acetylcholine receptor (Homo sapiens)
TEST_SUMMARY: SPR binding affinity (RU) of optimized 5mer/6mer/7mer peptides, Examples 6-7
SETTINGS: SPR, peptides tested at 10 μM; 6mer-1 Top sequence
Below: a set of entries, each annotated with reported Binding affinity.
PARAMETER: Binding affinity (Ru)

INSERT INTO results (substance, parameter, numeric_readout) VALUES
  ('6mer-1-473 (KKVLSK)', 'Binding affinity', 154),
  ('6mer-1-428 (KRVVLR)', 'Binding affinity', 139),
  ('6mer-1-595 (KKSLCK)', 'Binding affinity', 121),
  ('6mer-1-510 (KRRQSR)', 'Binding affinity', 122),
  ('6mer-1-564 (KRSITK)', 'Binding affinity', 139),
  ('6mer-1-553 (RRGVRK)', 'Binding affinity', 128),
  ('6mer-1-478 (RKVRYK)', 'Binding affinity', 139),
  ('6mer-1-502 (RKLFSR)', 'Binding affinity', 146),
  ('6mer-1-468 (RRLYRR)', 'Binding affinity', 153),
  ('6mer-1-516 (KKRFSR)', 'Binding affinity', 139),
  ('6mer-1-582 (KRWFLK)', 'Binding affinity', 137),
  ('6mer-1-457 (RKLLCR)', 'Binding affinity', 121),
  ('6mer-1-442 (RKLQYK)', 'Binding affinity', 131);

====

STUDY_TARGET: acetylcholine receptor (Homo sapiens, UniProt P02708)
Sequence (P02708 21-457): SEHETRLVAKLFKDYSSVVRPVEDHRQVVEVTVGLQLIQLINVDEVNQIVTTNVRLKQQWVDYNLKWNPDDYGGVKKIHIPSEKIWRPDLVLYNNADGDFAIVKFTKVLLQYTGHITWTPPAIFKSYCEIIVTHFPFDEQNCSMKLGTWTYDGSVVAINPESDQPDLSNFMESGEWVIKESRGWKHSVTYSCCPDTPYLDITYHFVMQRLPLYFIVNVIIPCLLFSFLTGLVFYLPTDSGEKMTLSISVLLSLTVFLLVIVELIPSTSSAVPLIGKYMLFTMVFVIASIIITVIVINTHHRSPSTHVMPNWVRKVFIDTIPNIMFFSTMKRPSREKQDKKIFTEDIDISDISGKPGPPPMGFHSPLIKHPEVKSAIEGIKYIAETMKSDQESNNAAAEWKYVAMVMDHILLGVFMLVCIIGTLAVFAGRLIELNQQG
TEST_SUMMARY: SPR binding affinity (RU) of optimized 5mer/6mer/7mer peptides, Examples 6-7
SETTINGS: 6mer-1 Top sequence; SPR; peptides tested at 10 μM
PARAMETER: Binding affinity (Ru)

INSERT INTO assay_data (substance, parameter, numeric_readout) VALUES
  ('6mer-1-263 (RKSYTK)', 'Binding affinity', 146),
  ('6mer-1-319 (KRWVQK)', 'Binding affinity', 123),
  ('6mer-1-296 (RKSIRR)', 'Binding affinity', 121),
  ('6mer-1-340 (KRLLCK)', 'Binding affinity', 142),
  ('6mer-1-270 (KRGLRR)', 'Binding affinity', 149),
  ('6mer-1-284 (KRSRQK)', 'Binding affinity', 145),
  ('6mer-1-311 (RRGYQK)', 'Binding affinity', 127),
  ('6mer-1-291 (KKQIRK)', 'Binding affinity', 142),
  ('6mer-1-244 (RRRVQK)', 'Binding affinity', 144),
  ('6mer-1-306 (KKLFYR)', 'Binding affinity', 135),
  ('6mer-1-371 (KRSLTR)', 'Binding affinity', 153),
  ('6mer-1-212 (RRRICR)', 'Binding affinity', 148),
  ('6mer-1-382 (KRQYTR)', 'Binding affinity', 139),
  ('6mer-1-366 (KRWFCR)', 'Binding affinity', 133),
  ('6mer-1-275 (RKRVLK)', 'Binding affinity', 123),
  ('6mer-1-288 (KKVQQR)', 'Binding affinity', 148),
  ('6mer-1-242 (KRQYLK)', 'Binding affinity', 148),
  ('6mer-1-279 (RRLRYR)', 'Binding affinity', 145),
  ('6mer-1-400 (KRWQTK)', 'Binding affinity', 123),
  ('6mer-1-222 (RRRVRR)', 'Binding affinity', 145),
  ('6mer-1-307 (KRWYRR)', 'Binding affinity', 153),
  ('6mer-1-342 (RKRFCR)', 'Binding affinity', 131),
  ('6mer-1-278 (KRQQTR)', 'Binding affinity', 142),
  ('6mer-1-368 (RRRFSK)', 'Binding affinity', 145),
  ('6mer-1-298 (KKLYCK)', 'Binding affinity', 147),
  ('6mer-1-215 (RKRYSR)', 'Binding affinity', 136),
  ('6mer-1-217 (KRVLQR)', 'Binding affinity', 135),
  ('6mer-1-335 (RRSQRR)', 'Binding affinity', 148),
  ('6mer-1-394 (KKVRRR)', 'Binding affinity', 149),
  ('6mer-1-379 (KRRISK)', 'Binding affinity', 153),
  ('6mer-1-240 (RRSRRR)', 'Binding affinity', 148);

====

STUDY_TARGET: acetylcholine receptor (Homo sapiens, UniProt P02708)
TEST_SUMMARY: SPR binding affinity (RU) of optimized 5mer/6mer/7mer peptides, Examples 6-7
SETTINGS: SPR, peptides tested at 10 μM; 6mer-1 Top sequence
PARAMETER: Binding affinity (Ru)

INSERT INTO assay_data (substance, numeric_readout) VALUES
  ('6mer-1-549 (KKSYQR)', 142),
  ('6mer-1-541 (RKWFTR)', 136),
  ('6mer-1-545 (RRSYRK)', 127),
  ('6mer-1-484 (KKLYLR)', 154),
  ('6mer-1-574 (RKSYLR)', 148),
  ('6mer-1-465 (RKQVYK)', 154),
  ('6mer-1-450 (RKVVYK)', 151),
  ('6mer-1-469 (KKLIYR)', 139),
  ('6mer-1-505 (RRRFTR)', 148),
  ('6mer-1-563 (RRSFTR)', 139);

====

Reported Binding affinity values for a set of substances
STUDY_TARGET: acetylcholine receptor (Homo sapiens, UniProt P02708)
TEST_SUMMARY: SPR binding affinity (RU) of optimized 5mer/6mer/7mer peptides, Examples 6-7
SETTINGS: 6mer-2 Top sequence; SPR; peptides tested at 10 μM
PARAMETER: Binding affinity (Ru)

INSERT INTO results (substance, numeric_readout) VALUES
  ('6mer-2-51 (KQFLKK)', 139),
  ('6mer-2-91 (KWIYKR)', 121),
  ('6mer-2-33 (RQFRKK)', 142);

====

Below is a list of entries, each paired with its recorded Binding affinity value.
STUDY_TARGET: acetylcholine receptor (Homo sapiens)
TEST_SUMMARY: SPR binding affinity (RU) of optimized 5mer/6mer/7mer peptides, Examples 6-7
SETTINGS: 6mer-1 Top sequence; SPR; peptides tested at 10 μM
Experimental: Based on the frequencies of occurrence of the top 7 amino acids from Table 7 in Example 5, 600 peptides comprising these amino acids (top combinations) and those comprising the 13 less frequently occurring amino acids (bottom combinations) were synthesized for each series of 5mer, 6mer-1, and 6mer-2. The binding affinity of each sequence for the acetylcholine receptor was measured using Surface Plasmon Resonance (SPR) analysis method. The peptides were tested at a concentration of 10 μM. […]
PARAMETER: Binding affinity (Ru)

INSERT INTO measurements (substance, study_target, numeric_readout) VALUES
  ('6mer-1-289 (RKRYYR)', 'acetylcholine receptor (Homo sapiens)', 153),
  ('6mer-1-226 (RRWITR)', 'acetylcholine receptor (Homo sapiens)', 128),
  ('6mer-1-385 (KRQVLR)', 'acetylcholine receptor (Homo sapiens)', 127),
  ('6mer-1-381 (RKGFYR)', 'acetylcholine receptor (Homo sapiens)', 124),
  ('6mer-1-345 (KKLLCR)', 'acetylcholine receptor (Homo sapiens)', 147),
  ('6mer-1-259 (KRRYRK)', 'acetylcholine receptor (Homo sapiens)', 141),
  ('6mer-1-314 (RRRILR)', 'acetylcholine receptor (Homo sapiens)', 141),
  ('6mer-1-327 (KRGITR)', 'acetylcholine receptor (Homo sapiens)', 139),
  ('6mer-1-231 (KRQRTK)', 'acetylcholine receptor (Homo sapiens)', 136),
  ('6mer-1-392 (RRVQTR)', 'acetylcholine receptor (Homo sapiens)', 135),
  ('6mer-1-252 (RRWIRR)', 'acetylcholine receptor (Homo sapiens)', 131),
  ('6mer-1-271 (RRQVSK)', 'acetylcholine receptor (Homo sapiens)', 122),
  ('6mer-1-264 (RRQYQR)', 'acetylcholine receptor (Homo sapiens)', 128),
  ('6mer-1-380 (KRLQLR)', 'acetylcholine receptor (Homo sapiens)', 121),
  ('6mer-1-359 (KRQFLR)', 'acetylcholine receptor (Homo sapiens)', 131),
  ('6mer-1-258 (KKLQYK)', 'acetylcholine receptor (Homo sapiens)', 137),
  ('6mer-1-268 (KRRQSK)', 'acetylcholine receptor (Homo sapiens)', 144),
  ('6mer-1-276 (RRVICK)', 'acetylcholine receptor (Homo sapiens)', 128),
  ('6mer-1-398 (KKQYYR)', 'acetylcholine receptor (Homo sapiens)', 137),
  ('6mer-1-287 (RKWLTR)', 'acetylcholine receptor (Homo sapiens)', 136),
  ('6mer-1-256 (KRVRTK)', 'acetylcholine receptor (Homo sapiens)', 125),
  ('6mer-1-361 (RKSVQR)', 'acetylcholine receptor (Homo sapiens)', 127),
  ('6mer-1-277 (KKGLCR)', 'acetylcholine receptor (Homo sapiens)', 141),
  ('6mer-1-363 (KRQIRR)', 'acetylcholine receptor (Homo sapiens)', 121),
  ('6mer-1-297 (RRGFSK)', 'acetylcholine receptor (Homo sapiens)', 139),
  ('6mer-1-375 (RRVFYR)', 'acetylcholine receptor (Homo sapiens)', 154),
  ('6mer-1-341 (RKQQQR)', 'acetylcholine receptor (Homo sapiens)', 128),
  ('6mer-1-229 (RRRLLR)', 'acetylcholine receptor (Homo sapiens)', 153),
  ('6mer-1-343 (KKLYTK)', 'acetylcholine receptor (Homo sapiens)', 135),
  ('6mer-1-214 (RRSYCK)', 'acetylcholine receptor (Homo sapiens)', 139),
  ('6mer-1-230 (RKGYCK)', 'acetylcholine receptor (Homo sapiens)', 128),
  ('6mer-1-328 (KRWLQK)', 'acetylcholine receptor (Homo sapiens)', 151),
  ('6mer-1-281 (KRLLCR)', 'acetylcholine receptor (Homo sapiens)', 154),
  ('6mer-1-262 (RKQLQR)', 'acetylcholine receptor (Homo sapiens)', 139),
  ('6mer-1-224 (KRGFLR)', 'acetylcholine receptor (Homo sapiens)', 142),
  ('6mer-1-323 (RRWLYR)', 'acetylcholine receptor (Homo sapiens)', 149),
  ('6mer-1-280 (RKLQCK)', 'acetylcholine receptor (Homo sapiens)', 149),
  ('6mer-1-204 (KKRQRR)', 'acetylcholine receptor (Homo sapiens)', 154),
  ('6mer-1-257 (RKWVTR)', 'acetylcholine receptor (Homo sapiens)', 124),
  ('6mer-1-391 (RRQRCK)', 'acetylcholine receptor (Homo sapiens)', 131),
  ('6mer-1-352 (RKVFRK)', 'acetylcholine receptor (Homo sapiens)', 142),
  ('6mer-1-232 (RRRICK)', 'acetylcholine receptor (Homo sapiens)', 146),
  ('6mer-1-250 (RRVICR)', 'acetylcholine receptor (Homo sapiens)', 142),
  ('6mer-1-283 (KKWVQK)', 'acetylcholine receptor (Homo sapiens)', 133),
  ('6mer-1-285 (KRWVQR)', 'acetylcholine receptor (Homo sapiens)', 122);

// data source = patent US20250011363A1
